Each recorded value in this set is attributed to ChEMBL document CHEMBL1131036.

For each entry below, report its CC50 value.
Tested on: HeLa
Experiment Description: Concentration of compound that decreased the percentage of formazan production in treated HRV-14 virus infected cells to that produced in uninfected cells
Format: functional
Reported Conditions: Homo sapiens
Provide the reading as a plain figure in µM.

Problem: Give me measured CC50, please, for this molecule: CC(C)C[C@H](NC(=O)OCc1ccccc1)C(=O)N[C@@H](Cc1ccccc1)C(=O)N[C@H](/C=C/C(=O)N(C)O)CCC(N)=O
Result: 42

Problem: Name the recorded CC50 of the molecule listed here: CC(C)C[C@H](NC(=O)OCc1ccccc1)C(=O)N[C@@H](Cc1ccccc1)C(=O)N[C@H](/C=C/C(=O)n1ccc2ccccc21)CCC(N)=O
Result: 29

* * *

System: HeLa
Experiment Description: Formazan production in HRV-14 virus infected cells
Format: functional, cell-based
Reported Conditions: Homo sapiens
pEC50: −log10 of the molar value.
Endpoint Name: pEC50

Problem: Please list pEC50 recorded for the compound CCOP(=O)(/C=C/[C@H](CCC(N)=O)NC(=O)[C@H](Cc1ccccc1)NC(=O)[C@H](CC(C)C)NC(=O)OCc1ccccc1)OCC
Result: < 3.49

Problem: Fill in reported pEC50 for this entry: CC(C)C[C@H](NC(=O)OCc1ccccc1)C(=O)N[C@@H](Cc1ccccc1)C(=O)N[C@H](/C=C/C(=O)N1CCc2ccc(S(=O)(=O)N3CCCC3)cc21)CCC(N)=O
Result: < 3.49

Problem: Tell us which pEC50 value is on record for CON1CC/C(=C\[C@H](CCC(N)=O)NC(=O)[C@H](Cc2ccccc2)NC(=O)[C@H](CC(C)C)NC(=O)OCc2ccccc2)C1=O
Result: 4.74

Problem: Look up pEC50 of CC(C)C[C@H](NC(=O)OCc1ccccc1)C(=O)N[C@@H](Cc1ccccc1)C(=O)N[C@H](/C=C/c1ccccn1)CCC(N)=O and report it.
Result: < 4.00

Problem: Read the entry CCOC(=O)/C(F)=C/[C@H](CCC(N)=O)NC(=O)[C@H](Cc1ccccc1)NC(=O)[C@H](CC(C)C)NC(=O)OCc1ccccc1 and write its reported pEC50.
Result: < 3.49

Problem: Look up and report measured pEC50 for this entry: CC(C)C[C@H](NC(=O)OCc1ccccc1)C(=O)N[C@@H](Cc1ccccc1)C(=O)N[C@H](/C=C1\CCOC1=O)CCC(N)=O
Result: 5.28

* * *

Tested on: HeLa
Experiment Description: Concentration of compound that decreased the percentage of formazan production in treated HRV-14 virus infected cells to that produced in uninfected cells
Assay type: functional
Reported Conditions: Homo sapiens
Please provide measured CC50 for the entries that follow.

Problem: Under HeLa, report CC50 for CCOC(=O)/C(F)=C/[C@H](CCC(N)=O)NC(=O)[C@H](Cc1ccccc1)NC(=O)[C@H](CC(C)C)NC(=O)OCc1ccccc1
Result: > 320 µM

Problem: Report value: CC50, system: HeLa, compound: CC(C)C[C@H](NC(=O)OCc1ccccc1)C(=O)N[C@@H](Cc1ccccc1)C(=O)N[C@H](/C=C/C(=O)N1CCN(C)C1=O)CCC(N)=O
Result: > 320 µM

Problem: Enter measured CC50, system HeLa, for the compound shown: CC(C)C[C@H](NC(=O)OCc1ccccc1)C(=O)N[C@@H](Cc1ccccc1)C(=O)N[C@H](/C=C/C(=O)OCc1ccccc1)CCC(N)=O
Result: > 100 µM

Problem: Report measured CC50 on HeLa; entry: CON1CC/C(=C\[C@H](CCC(N)=O)NC(=O)[C@H](Cc2ccccc2)NC(=O)[C@H](CC(C)C)NC(=O)OCc2ccccc2)C1=O
Result: > 100 µM

Problem: Please report the measured CC50 for CCOC(=O)/C=C/[C@H](CCC(N)=O)NC(=O)[C@H](Cc1ccccc1)NC(=O)[C@H](CC(C)C)NC(=O)OCc1ccccc1 tested on HeLa.
Result: > 320 µM

Problem: Given CC(C)C[C@H](NC(=O)OCc1ccccc1)C(=O)N[C@@H](Cc1ccccc1)C(=O)N[C@H](/C=C/C(=O)N1CCc2ccc(S(=O)(=O)N3CCCC3)cc21)CCC(N)=O , report its CC50 on HeLa.
Result: > 320 µM
